# Assayed Target: T1, human IL-12Rβ2 expressed on cells (human, UniProt Q99665 24-862)
# T1 construct: HEK293T cells transiently transfected with a human IL-12Rβ2 plasmid (Genscript OHu21785); also called hIL-12RB2
# T1 sequence: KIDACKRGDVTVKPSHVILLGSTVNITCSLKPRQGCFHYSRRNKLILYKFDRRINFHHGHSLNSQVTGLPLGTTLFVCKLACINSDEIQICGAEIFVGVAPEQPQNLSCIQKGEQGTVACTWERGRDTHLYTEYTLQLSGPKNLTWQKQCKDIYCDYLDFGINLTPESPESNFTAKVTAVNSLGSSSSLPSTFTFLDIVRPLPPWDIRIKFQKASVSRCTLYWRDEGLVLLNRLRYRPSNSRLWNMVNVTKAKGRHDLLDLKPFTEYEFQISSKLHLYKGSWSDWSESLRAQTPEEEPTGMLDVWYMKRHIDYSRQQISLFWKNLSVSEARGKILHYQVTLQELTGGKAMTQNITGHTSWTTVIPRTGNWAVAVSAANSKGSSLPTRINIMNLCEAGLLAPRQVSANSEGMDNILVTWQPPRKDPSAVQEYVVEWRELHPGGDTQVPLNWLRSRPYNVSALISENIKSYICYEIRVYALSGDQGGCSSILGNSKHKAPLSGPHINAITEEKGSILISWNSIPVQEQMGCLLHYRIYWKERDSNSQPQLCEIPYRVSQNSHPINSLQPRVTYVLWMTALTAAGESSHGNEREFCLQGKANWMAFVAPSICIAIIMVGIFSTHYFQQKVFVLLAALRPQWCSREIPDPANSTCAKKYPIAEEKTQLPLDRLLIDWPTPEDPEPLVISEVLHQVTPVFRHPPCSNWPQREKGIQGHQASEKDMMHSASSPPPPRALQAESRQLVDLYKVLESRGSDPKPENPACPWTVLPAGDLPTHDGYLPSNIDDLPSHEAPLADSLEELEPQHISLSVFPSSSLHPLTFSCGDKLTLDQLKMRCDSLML
# Method Notes: flow cytometry, P.E. VHH on HEK293T cells transiently expressing hIL-12RB2
Assay Readout: dMFI

Recorded dMFI, per entry:
Binder | dMFI
anti-IL-12Rβ2 VHH clone 3CAHS142 (VHH, not shown: small tags and cut ends, tested as periplasmic extract) VHH: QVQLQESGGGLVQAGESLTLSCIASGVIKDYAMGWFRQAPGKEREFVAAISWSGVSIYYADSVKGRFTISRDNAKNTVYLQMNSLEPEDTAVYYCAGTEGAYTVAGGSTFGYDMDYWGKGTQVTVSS | 812
anti-IL-12Rβ2 VHH clone 3CRHM99 (VHH, not shown: small tags and cut ends, tested as periplasmic extract; also called 21062) VHH: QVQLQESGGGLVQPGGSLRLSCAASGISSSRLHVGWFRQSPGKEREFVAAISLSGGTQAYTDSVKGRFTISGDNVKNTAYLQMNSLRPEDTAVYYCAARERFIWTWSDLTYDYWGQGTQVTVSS | 458
anti-IL-12Rβ2 VHH clone 3CRHS106 (VHH, not shown: small tags and cut ends, tested as periplasmic extract) VHH: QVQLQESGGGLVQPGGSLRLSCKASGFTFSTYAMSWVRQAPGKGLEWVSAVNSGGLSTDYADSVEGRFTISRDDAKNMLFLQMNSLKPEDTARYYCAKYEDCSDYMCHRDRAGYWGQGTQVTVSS | 1010

Reported dMFI ( anti-IL-12Rβ2 VHH clone 3CRHS128 (VHH, not shown: small tags and cut ends, tested as periplasmic extract; also called SCRHS128) VHH: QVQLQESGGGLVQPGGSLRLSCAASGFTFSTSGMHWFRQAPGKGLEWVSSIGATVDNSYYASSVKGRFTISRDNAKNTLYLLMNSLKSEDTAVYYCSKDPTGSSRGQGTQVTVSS ) = 1380

Reported dMFI ( anti-IL-12Rβ2 VHH clone 3CRHM14 (VHH, not shown: small tags and cut ends, tested as periplasmic extract) VHH: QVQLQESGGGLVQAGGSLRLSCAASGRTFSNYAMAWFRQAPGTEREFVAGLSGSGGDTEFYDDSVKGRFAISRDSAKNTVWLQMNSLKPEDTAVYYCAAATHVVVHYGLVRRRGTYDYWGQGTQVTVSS ) = 589

Reported dMFI ( anti-IL-12Rβ2 VHH clone 3CAHS41 (VHH, not shown: small tags and cut ends, tested as periplasmic extract) VHH: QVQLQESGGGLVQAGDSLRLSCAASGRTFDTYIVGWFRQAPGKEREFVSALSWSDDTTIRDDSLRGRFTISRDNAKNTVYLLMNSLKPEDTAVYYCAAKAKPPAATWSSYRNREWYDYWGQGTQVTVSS ) = 971

Reported dMFI ( anti-IL-12Rβ2 VHH clone 3CAHS102 (VHH, not shown: small tags and cut ends, tested as periplasmic extract) VHH: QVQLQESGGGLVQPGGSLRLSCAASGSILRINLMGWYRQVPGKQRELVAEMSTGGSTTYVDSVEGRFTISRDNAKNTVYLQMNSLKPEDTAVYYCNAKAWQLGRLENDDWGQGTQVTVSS ) = 994

Reported dMFI ( anti-IL-12Rβ2 VHH clone 3CRHS54 (VHH, not shown: small tags and cut ends, tested as periplasmic extract; also called 3CRHSS4) VHH: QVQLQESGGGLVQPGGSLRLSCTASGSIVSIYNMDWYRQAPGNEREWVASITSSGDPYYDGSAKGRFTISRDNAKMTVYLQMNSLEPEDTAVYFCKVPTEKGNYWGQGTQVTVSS ) = 870

Reported dMFI ( anti-IL-12Rβ2 VHH clone 3CRHS9 (VHH, not shown: small tags and cut ends, tested as periplasmic extract) VHH: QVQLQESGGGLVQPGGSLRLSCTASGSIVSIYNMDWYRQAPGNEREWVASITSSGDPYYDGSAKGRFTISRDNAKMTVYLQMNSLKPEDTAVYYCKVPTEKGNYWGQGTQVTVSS ) = 941

Reported dMFI ( anti-IL-12Rβ2 VHH clone 2CRH82 (VHH, not shown: small tags and cut ends, tested as periplasmic extract) VHH: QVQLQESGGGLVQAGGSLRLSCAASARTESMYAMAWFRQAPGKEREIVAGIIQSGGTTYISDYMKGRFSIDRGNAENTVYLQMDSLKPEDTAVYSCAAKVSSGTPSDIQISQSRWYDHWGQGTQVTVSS ) = 744
